Below, each of the compounds is paired with its reported pKd value.
target: Fusion molecule SEQ ID NO: 134 (hNGAL muteins SEQ ID NOs: 36, 16, 53 and 62) (Homo sapiens, UniProt P80188, A60T/C107S/D97H, form not given/K145I/K154W/K93R/L123T/L56V/L90R/N85D/Q69G/R101D/R92I/S147R/S88D/T74A/W99Y/Y126Q/Y152I/Y72N); assay: Surface plasmon resonance (Biacore T200); details: Biacore, 25° C., Table 13
Sequence (P80188 with tags, fused parts or gaps with the stated changes, form open): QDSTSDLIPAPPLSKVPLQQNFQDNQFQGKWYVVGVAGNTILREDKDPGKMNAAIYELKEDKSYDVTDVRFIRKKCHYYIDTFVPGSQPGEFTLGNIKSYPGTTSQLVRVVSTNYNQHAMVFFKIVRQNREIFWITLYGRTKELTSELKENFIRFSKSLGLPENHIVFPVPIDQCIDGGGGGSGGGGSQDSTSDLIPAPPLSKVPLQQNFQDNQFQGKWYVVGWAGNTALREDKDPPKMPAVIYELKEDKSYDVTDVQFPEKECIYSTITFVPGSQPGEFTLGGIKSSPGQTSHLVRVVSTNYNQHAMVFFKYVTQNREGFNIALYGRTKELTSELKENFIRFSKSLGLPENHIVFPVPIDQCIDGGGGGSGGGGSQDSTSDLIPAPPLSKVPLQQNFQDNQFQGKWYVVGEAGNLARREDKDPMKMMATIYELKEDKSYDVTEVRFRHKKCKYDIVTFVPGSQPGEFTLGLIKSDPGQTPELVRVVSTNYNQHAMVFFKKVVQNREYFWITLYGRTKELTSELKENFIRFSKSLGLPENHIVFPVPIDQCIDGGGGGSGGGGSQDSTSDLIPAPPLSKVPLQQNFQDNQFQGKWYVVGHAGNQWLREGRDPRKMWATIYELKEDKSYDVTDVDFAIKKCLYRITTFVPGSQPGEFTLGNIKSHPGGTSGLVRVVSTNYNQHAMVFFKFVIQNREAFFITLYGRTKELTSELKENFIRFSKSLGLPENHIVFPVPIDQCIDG
Interpret pKd as the negative base-10 log of the concentration measured in mol/L.

Below are worked cases with known answers.
compound="NC(=O)CCC(=O)Nc1cc2cc([O-])c([O-])cc2[n+]2c1NCC[C@H]2C(=O)N[C@H](CO)C1=NCC[C@@H](C(=O)N[C@@H](CCCN([O-])C=O)C(=O)N[C@@H](CCC(N)=O)C(=O)N[C@H](CCC(N)=O)C(=O)N[C@H](CCCN([O-])C=O)C(=O)NCC(=O)O)N1.[Fe+3] [Pvd III sa (+Fe), Pvd type III succinamide]" measured_value=9.57
compound="NC(=O)CCC(=O)Nc1cc2cc(O)c(O)cc2[n+]2c1NCC[C@H]2C(=O)N[C@H](CO)C1=NCC[C@@H](C(=O)N[C@@H](CCCN(O)C=O)C(=O)N[C@@H](CCC(N)=O)C(=O)N[C@H](CCC(N)=O)C(=O)N[C@H](CCCN(O)C=O)C(=O)NCC(=O)O)N1 [Pvd III sa (−Fe), Pvd type III succinamide]" measured_value=8.78

Turning now to a further record.
Lookup: Reported pKd, compound NC(=O)CC[C@H](NC(=O)[C@H](CCCN(O)C=O)NC(=O)[C@@H]1CCN=C([C@@H](CO)NC(=O)[C@@H]2CCNc3c(NC(=O)C(=O)CCC(=O)O)cc4cc(O)c(O)cc4[n+]32)N1)C(=O)N[C@H](CCC(N)=O)C(=O)N[C@H](CCCN(O)C=O)C(=O)NCC(=O)O [Pvd III aKG (−Fe), Pvd type III α-ketoglutaryl] : ____
Found: 7.73

Values compiled from patent US10947284B2.
